Numbers sourced from the supplement of paper PMC12783771.

B1: library; numbered along this chain (parent)
chain: MNIQIGELAKRTACPVVTIRFYEQEGLLPPPGRSRGNFRLYGEEHVERLQFIRHCRSLDMPLSDVRTLLSYRKRPDQDCGEVNMLLDEHIRQVESRIGALLELKHHLVELREACSGARPAQSCGILQGLSDCVCDTRGTTAHPSD

variants of: B1; experiment: sfGFP reporter fluorescence (15 h) (µM FITC); higher = higher leak; conditions: library round: Round 0; ligand: none

VARIANT_ID: P61N D64K K104V G128M
sfGFP reporter fluorescence: 0.739

VARIANT_ID: D64K L107C G128I
sfGFP reporter fluorescence: 4.71

VARIANT_ID: L126H
sfGFP reporter fluorescence: 0.0603

VARIANT_ID: M60P
sfGFP reporter fluorescence: 0.0605

VARIANT_ID: R20I
sfGFP reporter fluorescence: 0.0585

VARIANT_ID: C123A
sfGFP reporter fluorescence: 0.0575

VARIANT_ID: E43W
sfGFP reporter fluorescence: 0.061

VARIANT_ID: D64K K104V L107C
sfGFP reporter fluorescence: 2.05

VARIANT_ID: V82E
sfGFP reporter fluorescence: 0.0568

VARIANT_ID: E109V
sfGFP reporter fluorescence: 0.0605

VARIANT_ID: V46K
sfGFP reporter fluorescence: 0.0599

VARIANT_ID: I97S
sfGFP reporter fluorescence: 0.0592

VARIANT_ID: P143S
sfGFP reporter fluorescence: 0.0566

VARIANT_ID: E112Q
sfGFP reporter fluorescence: 0.0627

VARIANT_ID: R20M
sfGFP reporter fluorescence: 0.0607

VARIANT_ID: P15I
sfGFP reporter fluorescence: 0.0605

VARIANT_ID: D131F
sfGFP reporter fluorescence: 0.0596

VARIANT_ID: K104L
sfGFP reporter fluorescence: 0.0592

VARIANT_ID: M60L L107C G128I
sfGFP reporter fluorescence: 2.19

VARIANT_ID: E43T
sfGFP reporter fluorescence: 0.0634

VARIANT_ID: V82G
sfGFP reporter fluorescence: 0.0555

VARIANT_ID: R33W
sfGFP reporter fluorescence: 0.0636

VARIANT_ID: F21H
sfGFP reporter fluorescence: 0.0596

VARIANT_ID: C123M
sfGFP reporter fluorescence: 0.057

VARIANT_ID: P61N K104V
sfGFP reporter fluorescence: 0.121

VARIANT_ID: C79E
sfGFP reporter fluorescence: 0.0588

VARIANT_ID: D64K L107C G128M
sfGFP reporter fluorescence: 6.27

VARIANT_ID: C134H
sfGFP reporter fluorescence: 0.0645

VARIANT_ID: R39M
sfGFP reporter fluorescence: 0.0614

VARIANT_ID: E112G
sfGFP reporter fluorescence: 0.0586

VARIANT_ID: V108L
sfGFP reporter fluorescence: 0.0594

VARIANT_ID: P30D
sfGFP reporter fluorescence: 0.0658

VARIANT_ID: M60F
sfGFP reporter fluorescence: 1.94

VARIANT_ID: L126E
sfGFP reporter fluorescence: 0.0594

VARIANT_ID: L58G
sfGFP reporter fluorescence: 0.0548

VARIANT_ID: E94T
sfGFP reporter fluorescence: 0.0673

VARIANT_ID: I125F
sfGFP reporter fluorescence: 0.0553

VARIANT_ID: R20E
sfGFP reporter fluorescence: 0.0603

VARIANT_ID: H89P
sfGFP reporter fluorescence: 0.0566

VARIANT_ID: H89E
sfGFP reporter fluorescence: 0.0647

VARIANT_ID: P15D
sfGFP reporter fluorescence: 0.066

VARIANT_ID: G128M
sfGFP reporter fluorescence: 0.105

VARIANT_ID: G36H
sfGFP reporter fluorescence: 0.0627

VARIANT_ID: P15Y
sfGFP reporter fluorescence: 0.0652

VARIANT_ID: K104V
sfGFP reporter fluorescence: 0.0652

VARIANT_ID: G6D
sfGFP reporter fluorescence: 0.0638
